System: human breast cancer cells (MCF-7)
Experiment: MTT cytotoxicity assay, MCF-7
Type: cell-based
Conditions: Homo sapiens, MCF7; MCF-7, MTT, 48 h
ENDPOINT: IC50 (µM)
Give bare numbers, in µM.

CC(=O)Oc1ccccc1C(=O)OC1CC2C3(C)CCC(O)C(C)(C)C3CCC2(C)C2(C)CCC(C3(C)CCCC(C)(C)O3)C12 (stereo not drawn): 24.4
CC(C)(O)CCCC(C)(O)C1CCC2(C)C1C(O)CC1C3(C)CCC(OC(=O)c4ccccc4O)C(C)(C)C3CCC12C (stereo not drawn): 50.4
CC(C)(O)CCCC(C)(O)C1CCC2(C)C1C(OC(=O)c1ccccc1O)CC1C3(C)CCC(OC(=O)c4ccccc4O)C(C)(C)C3CCC12C (stereo not drawn): 29.1
CC1(C)CCC[C@](C)(C2CC[C@]3(C)C2[C@H](OC(=O)c2ccccc2O)CC2[C@@]4(C)CC[C@H](OC(=O)c5ccccc5O)C(C)(C)C4CC[C@]23C)O1 (stereo partly drawn) [Compound 10a]: 41.4

Proceed to the following item.
Prompt: Please supply the value of reported IC50 for the item CC(=O)Oc1ccccc1C(=O)OC1CCC2(C)C(CCC3(C)C2CC(O)C2C(C4(C)CCCC(C)(C)O4)CCC23C)C1(C)C (stereo not drawn)
Completion: 2.56

---

Test system: human breast cancer cells (MCF-7)
Assay: MTT cytotoxicity assay, MCF-7
Type: cell-based
Conditions: Homo sapiens, MCF7; MCF-7, MTT, 48 h
Could you please report measured pIC50 for the items listed next?
Give bare numbers, as −log10 of the molar value.

Here's what some known entries look like.
CC(=O)Oc1ccccc1C(=O)OC1CCC2(C)C(CCC3(C)C2CC(OC(C)=O)C2C(C(C)(O)CCCC(C)(C)O)CCC23C)C1(C)C (stereo not shown): 4.65
COC(C)(C)CCC[C@@](C)(O)C1CC[C@]2(C)C1[C@H](O)CC1[C@@]3(C)CC[C@H](O)C(C)(C)C3CC[C@]12C (stereo partly shown) [AD-1, 25-methoxyprotopanaxadiol, reference compound]: 5.13
CC(=O)Oc1ccccc1C(=O)OC1CC2C3(C)CCC(OC(=O)c4ccccc4OC(C)=O)C(C)(C)C3CCC2(C)C2(C)CCC(C3(C)CCCC(C)(C)O3)C12 (stereo not shown): 4.99
CC1(C)CCC[C@](C)(C2CC[C@]3(C)C2[C@H](OC(=O)c2ccccc2O)CC2[C@@]4(C)CC[C@H](O)C(C)(C)C4CC[C@]23C)O1 (stereo partly shown) [Compound 12a]: 4.22
CC(=O)OC1CCC2(C)C(CCC3(C)C2CC(OC(=O)c2ccccc2O)C2C(C4(C)CCCC(C)(C)O4)CCC23C)C1(C)C (stereo not shown): 4.40

Record pIC50 per entry; entries follow.
1. CC(=O)Oc1ccccc1C(=O)O [Acetyl-salicylic acid, reference compound]
2. CC(C)(O)CCCC(C)(O)C1CCC2(C)C1C(OC(=O)c1ccccc1O)CC1C3(C)CCC(O)C(C)(C)C3CCC12C (stereo not shown)

Completion:
4.24
4.73

Record pIC50 per entry; entries follow.
1. COC(C)(C)CCCC(C)(O)C1CCC2(C)C1C(O)CC1C3(C)CCC(OC(=O)c4ccccc4O)C(C)(C)C3CCC12C (stereo not shown)
2. CC(C)(O)CCC[C@@](C)(O)C1CC[C@]2(C)C1[C@H](O)CC1[C@@]3(C)CC[C@H](O)C(C)(C)C3CC[C@]12C (stereo partly shown) [AD-2, 25-hydroxyprotopanaxadiol, reference compound]

Completion:
4.95
4.30
